- assayed system: recombinant human mPGES-1 (Homo sapiens, UniProt O14684)
- Sequence (O14684 1-152): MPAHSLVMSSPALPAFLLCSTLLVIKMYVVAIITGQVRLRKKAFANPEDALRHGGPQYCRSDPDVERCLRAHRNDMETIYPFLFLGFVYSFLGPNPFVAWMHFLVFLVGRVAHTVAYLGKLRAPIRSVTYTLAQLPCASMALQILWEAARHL
- procedure text: Assay B: mPGES-1 enzyme assay (modified)
- Type: biochemical
- conditions: biological assay B (all other compounds); PGH2 final conc. 2 μM, HTRF; read-out: mPGES-1 inhibitory effect IC50
experimental endpoint: IC50 (nM)

// known answers, use as guide
molecule | unit annotation | IC50
CC(C)(C(=O)NCc1ccc(Cl)c(C(=O)Nc2ccc(OCC(F)F)c(C(=O)Nc3ccc(Cl)c(C#N)c3)c2)c1)C(F)(F)F | nM | 6
CC(C)(C)C(=O)NCc1ccc(Cl)c(C(=O)Nc2ccc(N3CCC(C(F)(F)F)CC3)c(C(=O)NCC3CC3)c2)c1 | nM | 5
CC(NC(=O)c1cc(NC(=O)c2cc(CNC(=O)C(C)(C)C(F)(F)F)ccc2Cl)ccc1OCC(F)F)C(F)(F)F (stereo not shown) | nM | 7

(P) CC(C)(C(=O)NCc1ccc(Cl)c(C(=O)Nc2ccc(OCC(F)F)c(C(=O)NC3CCC4(CC3)CC4)c2)c1)C(F)(F)F
(Q) CC(C)(C(=O)NCc1ccc(Cl)c(C(=O)Nc2ccc(OCC(F)F)c(C(=O)NC3CCC(CO)CC3)c2)c1)C(F)(F)F (stereo not shown)
(R) O=C(Nc1ccc(OCC(F)F)c(C(=O)Nc2ccc(Br)cc2)c1)c1cc(CNC(=O)C(F)(F)F)ccc1Cl
(S) CC(C)(C(=O)NCc1ccc(Cl)c(C(=O)Nc2ccc(OCC(F)F)c(C(=O)Nc3ccc(OC(F)(F)F)c(Cl)c3)c2)c1)C(F)(F)F
(T) CNC(C)(C)C(=O)NCc1ccc(Cl)c(C(=O)Nc2ccc(OCC(F)F)c(C(=O)Nc3ccc(Br)cc3)c2)c1
Task: Parameters: sort_field (IC50), sort_dir (desc). I'd appreciate it if you listed the labels in the requested order.
Result: Q, T, R, P, S

====

- assayed system: recombinant human mPGES-1 (Homo sapiens)
- procedure text: Assay B: mPGES-1 enzyme assay (modified)
- Assay type: biochemical
- conditions: biological assay B (all other compounds); PGH2 final conc. 2 μM, HTRF; read-out: mPGES-1 inhibitory effect IC50
pIC50: −log10 of the molar value.
experimental endpoint: pIC50

// known answers, use as guide
molecule | experimental endpoint | numeric result
CC(C)CNC(=O)c1cc(NC(=O)c2cc(CNC(=O)C(C)(C)C(F)(F)F)ccc2Cl)ccc1OCC(F)F | pIC50 | 8.10
CC(C)(C(=O)NCc1ccc(Cl)c(C(=O)Nc2ccc(OC3CCOC3)c(C(=O)N[C@H]3CC[C@H](C(F)(F)F)CC3)c2)c1)C(F)(F)F (stereo partly drawn) | pIC50 | 8.30

(1) CC(NC(=O)c1cc(NC(=O)c2c(Cl)ccc(CNC(=O)C(C)(C)C(F)(F)F)c2Cl)ccc1OCC(F)F)C1CC1 (stereo not drawn)
(2) CC(C)(C(=O)NCc1ccc(Cl)c(C(=O)Nc2ccc(OC3CCOC3)c(C(=O)Nc3ccc(Br)cc3)c2)c1)C(F)(F)F (stereo not drawn)
(3) COCC1(CNC(=O)c2cc(NC(=O)c3cc(CNC(=O)C(C)(C)C(F)(F)F)ccc3Cl)ccc2OCC(F)F)CCCC1
(4) CC(C)(C(=O)NCc1ccc(Cl)c(C(=O)Nc2ccc(OCC(F)F)c(C(=O)NC3CCC(F)(F)CC3)c2)c1Cl)C(F)(F)F
Task: Parameters: sort_field (pIC50), sort_dir (desc). I'd appreciate it if you listed the labels in the requested order.
Result: 1, 2, 3, 4
(1: 9.00, 2: 8.40, 3: 8.05, 4: 7.66)

====

- assayed system: recombinant human mPGES-1 (Homo sapiens, UniProt O14684)
- Sequence (O14684 1-152): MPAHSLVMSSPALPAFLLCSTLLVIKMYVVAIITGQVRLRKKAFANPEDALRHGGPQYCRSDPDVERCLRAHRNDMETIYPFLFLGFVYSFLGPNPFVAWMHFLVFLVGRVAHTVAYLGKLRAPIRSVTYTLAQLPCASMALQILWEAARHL
- procedure text: Assay B: mPGES-1 enzyme assay (modified)
- Type: biochemical
- conditions: biological assay B (all other compounds); PGH2 final conc. 2 μM, HTRF; read-out: mPGES-1 inhibitory effect IC50
pIC50: −log10 of the molar value.
experimental endpoint: pIC50

// known answers, use as guide
compound | pIC50
COCCOc1ccc(NC(=O)c2cc(CNC(=O)C3(C(F)(F)F)CC3)ccc2Cl)cc1C(=O)N[C@H]1CC[C@H](C(F)(F)F)CC1 [Example 53] | 7.96
O=C(Nc1ccc(OC2CCOC2)c(C(=O)N[C@H]2CC[C@H](C(F)(F)F)CC2)c1)c1cc(CNC(=O)C2(C(F)(F)F)CC2)ccc1Cl (stereo partly shown) [Example 68] | 8.05
CC(C)(C)C(=O)NCc1ccc(Cl)c(C(=O)Nc2ccc(N3CCC(F)CC3)c(C(=O)Nc3ccc(Br)cc3)c2)c1Cl [Example 61] | 8.30
CC(C)(C(=O)NCc1ccc(Cl)c(C(=O)Nc2ccc(OCC(F)F)c(C(=O)NCc3cccc(C(F)(F)F)c3)c2)c1)C(F)(F)F [Example 101] | 8.05
CC(O)(C(=O)NCc1ccc(Cl)c(C(=O)Nc2ccc(OCC(F)F)c(C(=O)Nc3ccc(Br)cc3)c2)c1)C(F)(F)F (stereo not shown) [Example 166] | 8.10

(P) CC(C)(C)C(=O)NCc1ccc(Cl)c(C(=O)Nc2cnc(OCC(F)F)c(C(=O)N[C@H]3CC[C@H](C(F)(F)F)CC3)c2)c1Cl [Example 178]
(Q) COCCOc1ccc(NC(=O)c2cc(CNC(=O)C(C)C(F)(F)F)ccc2Cl)cc1C(=O)Nc1ccc(Br)cc1 (stereo not shown) [Example 65]
Task: // returns P or Q , whichever has the lower pIC50 Use the label to indicate which entry you chose.
Result: P

(I) NC(C(=O)NCc1ccc(Cl)c(C(=O)Nc2ccc(OCC(F)F)c(C(=O)Nc3ccc(Br)cc3)c2)c1)C(F)(F)F (stereo not shown) [Example 174]
(II) CC(C)(C(=O)NCc1ccc(Cl)c(C(=O)Nc2ccc(OCC(F)F)c(C(=O)Nc3ccc(Cl)c(F)c3)c2)c1)C(F)(F)F [Example 108]
Task: // returns I or II , whichever has the lower pIC50 Use the label to indicate which entry you chose.
Result: I

(1) CC(C)(C(=O)NCc1ccc(Cl)c(C(=O)Nc2ccc(OCC(F)F)c(C(=O)NC3CCCC3)c2)c1)C(F)(F)F [Example 111]
(2) COCCOc1ccc(NC(=O)c2cc(CNC(=O)C(C)(C)C(F)(F)F)ccc2Cl)cc1C(=O)N[C@H]1CC[C@H](C(F)(F)F)CC1 [Example 64]
Task: // returns 1 or 2 , whichever has the lower pIC50 Use the label to indicate which entry you chose.
Result: 1

====

- assayed system: recombinant human mPGES-1 (Homo sapiens)
- procedure text: Assay B: mPGES-1 enzyme assay (modified)
- Type: biochemical
- conditions: biological assay B (all other compounds); PGH2 final conc. 2 μM, HTRF; read-out: mPGES-1 inhibitory effect IC50
experimental endpoint: IC50 (nM)

// known answers, use as guide
molecule | IC50, nM
CC(C)(C)C(=O)NCc1ccc(F)c(C(=O)Nc2ccc(F)c(C(=O)Nc3ccc(Br)cc3)c2)c1F | 120
COc1cc(NC(=O)c2cc(NC(=O)c3cc(CNC(=O)C(C)(C)C(F)(F)F)ccc3Cl)ccc2OCC(F)F)ccc1Br | 7
CC(C)(C(=O)NCc1ccc(Cl)c(C(=O)Nc2ccc(OCC(F)F)c(C(=O)Nc3cccc(Cl)c3)c2)c1Cl)C(F)(F)F | 2
COCCOc1ccc(NC(=O)c2cc(CNC(=O)C(C)(C)C(F)(F)F)ccc2Cl)cc1C(=O)Nc1ccc(Br)cc1 | 4
CC(C)(C)C(=O)NCc1ccc(F)c(C(=O)Nc2cnc(OCC(F)F)c(C(=O)Nc3ccc(Br)cc3)c2)c1F | 47

(I) CC(C)(C(=O)NCc1ccc(Cl)c(C(=O)Nc2ccc(OCC(F)F)c(C(=O)Nc3ccc(Br)c(F)c3)c2)c1)C(F)(F)F
(II) CC(C)(C(=O)NCc1ccc(Cl)c(C(=O)Nc2ccc(OCC(F)F)c(C(=O)Nc3cc(F)cc(Cl)c3)c2)c1Cl)C(F)(F)F
Task: // returns I or II , whichever has the lower IC50 Use the label to indicate which entry you chose.
Result: II

====

- assayed system: recombinant human mPGES-1 (Homo sapiens, UniProt O14684)
- procedure text: Assay B: mPGES-1 enzyme assay (modified)
- Assay type: biochemical
- conditions: biological assay B (all other compounds); PGH2 final conc. 2 μM, HTRF; read-out: mPGES-1 inhibitory effect IC50
pIC50: −log10 of the molar value.
experimental endpoint: pIC50

// known answers, use as guide
compound | pIC50
CC(C)(C(=O)NCc1ccc(Cl)c(C(=O)Nc2ccc(OCC(F)F)c(C(=O)NCC(F)(F)F)c2)c1Cl)C(F)(F)F [Example 147] | 8.10
CC(C)(C(=O)NCc1ccc(Cl)c(C(=O)Nc2ccc(OCC(F)F)c(C(=O)Nc3ccc(Cl)c(Cl)c3)c2)c1)C(F)(F)F [Example 125] | 8.30
CC(C)(C)C(=O)NCc1ccc(Cl)c(C(=O)Nc2ccc(OCC(F)F)c(C(=O)N[C@H]3CC[C@H](C(F)(F)F)CC3)c2)c1Cl [Example 48] | 8.22

(P) CC(C)(C(=O)NCc1ccc(Cl)c(C(=O)Nc2ccc(OCC(F)F)c(C(=O)NC3CCC3)c2)c1)C(F)(F)F [Example 122]
(Q) CCNC(=O)c1cc(NC(=O)c2cc(CNC(=O)C(C)(C)C(F)(F)F)ccc2Cl)ccc1OCC(F)F [Example 112]
Task: // returns P or Q , whichever has the lower pIC50 Use the label to indicate which entry you chose.
Result: Q
(Q: 7.80, P: 8.15)
